# Test system: THRa homodimer (NR concentration 90 nM)
# procedure-text: PBM binding z-score (relative to random genomic background probes); higher = stronger binding; sequences stand for … in GC…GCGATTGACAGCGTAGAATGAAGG
observation-type: PBM binding z-score

>  <chain-sequence>
CGAACGAGGGCATGAGATGATAGCAAATGCCGAT

>  <PBM binding z-score>
-0.224

$$$$
>  <chain-sequence>
GCATAAAGGTAATACAAGGTGAAAGTCCGATTGT

>  <PBM binding z-score>
0.994

$$$$
>  <chain-sequence>
TCATATAGGGAAACAGGTGAAAGTCCGTAAGTTA

>  <PBM binding z-score>
0.314

$$$$
>  <chain-sequence>
TCTATTAGTTGTAGGGCAACCGACGAGTCCGTTT

>  <PBM binding z-score>
0.0984

$$$$
>  <chain-sequence>
CAAACTACGTCACGAAAGGTCAAAGTCGAATGAC

>  <PBM binding z-score>
1.11

$$$$

## Task Dear colleague, please send me the reported PBM binding z-score for CCTACTGGGCCATTCAGCGGTCATTGATCATATG when you can.
## Result 0.0718

## Task Read the entry GGAACGAGGGCATGTTGATAGCAGAGTTTGATGG and write its reported PBM binding z-score.
## Result 0.428

----------
# Test system: VDR:RXRa (NR concentration 270 nM, RXRa partner concentration 90 nM)
# procedure-text: PBM binding z-score (relative to random genomic background probes); higher = stronger binding; sequences stand for … in GC…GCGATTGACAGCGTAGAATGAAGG
Readings of PBM binding z-score for the listed sequences
Answer with a number only.

>  <chain-sequence>
ACTATTAGTTAACTTAGGGCAACCGATACGACGC

>  <PBM binding z-score>
0.299

$$$$
>  <chain-sequence>
ATCTGTAGGTAAAGATAGTTCAGTGAATGCAAAT

>  <PBM binding z-score>
0.945

$$$$
>  <chain-sequence>
CCTACTTGGTCAAGGTCACACACGCTATAGGTAC

>  <PBM binding z-score>
3.97

$$$$

## Task Entry CCTCGGAGGACAGAAGGTCGGAGCTGTCCGCTTT needs its PBM binding z-score filled in; supply it.
## Result -0.398

## Task Check the records and state PBM binding z-score for CAAACTATGTCAAGGTCAAAGTCGGTTTGTGCCA
## Result 4.83

## Task Answer with the recorded PBM binding z-score of CCTACTGGCCCAAGGTCATTGATCAGTCAAAGCA only.
## Result 3.26

----------
# Test system: RARa homodimer (NR concentration 270 nM)
# procedure-text: PBM binding z-score (relative to random genomic background probes); higher = stronger binding; sequences stand for … in GC…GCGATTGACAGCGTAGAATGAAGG
Kindly return true if reported PBM binding z-score is no lower than 1; return false if it is lower.

Reference set, count: 3
>  <chain-sequence>
CGAACTAGGTCAGAAGAGGACAGTGAAGGATGAT

>  <assigned-label>
false

$$$$
>  <chain-sequence>
CCTAGTTGGTCAAGGTCACTCACGCTATAGGTAC

>  <assigned-label>
true

$$$$
>  <chain-sequence>
CCGACTGGGGCAAAGCTTACCATACTCAGTACGA

>  <assigned-label>
false

$$$$

## Task Hi team, for CCTTACGAGTCACGAGGTTATAGCACGACGAGCG , is the recorded PBM binding z-score at or above 1?
## Result true
